Data provenance: patent US11858905B1

# activity at 5 µM per entry
system: SARS-CoV-2 PsVs; experiment: microbe, parasite or virus in culture; assay type: cell-based; settings: Severe acute respiratory syndrome coronavirus 2, Vero C1008, 24 h, read-out: % Infection rate at 5 uM

COMPOUND | MEASUREMENT UNIT | activity at 5 µM
Cc1ccc(-c2ccc3nc(C[C@H](NC(=O)c4cc(C5(C)CC5)nn4C4CC4)C(=O)NC4(C#N)CC4)oc3c2)cn1 [Compound 42] | % | 5.6
CC(C)(C)c1cc(C(=O)N[C@@H](Cc2nc3ccc(C4=CCN(CC(F)F)CC4)cc3o2)C(=O)NC2(C#N)CC2)n(C2CC2)n1 [Compound 29] | % | 8.8
CC(=O)Nc1ccc(-c2ccc3nc(C[C@H](NC(=O)c4cc(C5(C)CC5)nn4C4CC4)C(=O)NC4(C#N)CC4)oc3c2)cn1 [Compound 41] | % | 57.7
COCCN1CC=C(c2ccc3nc(C[C@H](NC(=O)c4cc(C5(C)CC5)nn4C4CC4)C(=O)NC4(C#N)CC4)oc3c2)CC1 [Compound 46] | % | 0.08
N#CCNC(=O)[C@H](Cc1nc2ccccc2o1)NC(=O)c1cc(C2CC2)nn1C1CC1 [Compound 15] | % | 20
Cc1cc(-c2ccc3nc(C[C@H](NS(=O)(=O)c4cccc(Br)c4)C(=O)NCC#N)oc3c2)ccn1 [Compound 36] | % | 125
CN1CCN(c2ccc3nc(C[C@H](NC(=O)c4cc(C5CC5)nn4C4CC4)C(=O)NCC#N)oc3c2)CC1 [Compound 25] | % | 15
N#CC1(NC(=O)[C@H](Cc2nc3cccc(Br)c3o2)NC(=O)c2cccc(Cl)c2)CC1 [Compound 3] | % | 10
N#CC1(NC(=O)[C@H](Cc2nc3ccc(F)cc3o2)NC(=O)c2cccc(Cl)c2)CC1 [Compound 4] | % | 51
Cc1cc(-c2ccc3nc(C[C@H](NC(=O)c4cc(C5(C)CC5)nn4C4CC4)C(=O)NC4(C#N)CC4)oc3c2)ccn1 [Compound 38] | % | 1
CN(C)c1ccc(-c2ccc3nc(C[C@H](NC(=O)c4cc(C5(C)CC5)nn4C4CC4)C(=O)NC4(C#N)CC4)oc3c2)cn1 [Compound 39] | % | 4
N#CC1(NC(=O)[C@H](Cc2nc3ccccc3o2)NC(=O)c2cn(C3CC3)nc2C(F)(F)F)CC1 [Compound 18] | % | 72.6
CN1CCN(c2ccc3nc(C[C@H](NC(=O)c4cc(C(C)(C)C)nn4C4CC4)C(=O)NC4(C#N)CC4)oc3c2)CC1 [Compound 26] | % | 2.2
N#CC1(NC(=O)[C@H](Cc2nc3cc(Cl)ccc3o2)NC(=O)c2cccc(Cl)c2)CC1 [Compound 8] | % | 69
